# Protocol Summary: Cytotoxicity against human HSB2 cells after 7 days by Cell-Titer Glo assay
# Type: cell-based, CCRF-HSB-2
Entries and their measured CC50 at 168 h follow.

CCCCCCSc1nc(N)nc2c1ncn2/C=C1/CC1(CO)CO; 60 µM

May I ask what CC50 at 168 h has been recorded for Nc1nc(NCc2ccccc2)c2ncn(/C=C3/CC3(CO)CO)c2n1 ?
> 20 µM

Another compound to check: CCCCCCOc1nc(N)nc2c1ncn2/C=C1/CC1(CO)CO
> 20 µM

Record: Nc1nc(NC2CC2)c2ncn(/C=C3/CC3(CO)CO)c2n1
> 20 µM

# repeat for CCCCSc1nc(N)nc2c1ncn2/C=C1/CC1(CO)CO
89 µM
